# experimental_details: KARI assay of purified S. exigua KARI and variants with NADH (Examples 6-9)
# Type: biochemical
# setup_conditions: cofactor NADH
Measured U/mg NADH (specific activity) accompanies every entry in the list below.
// note: answer is a bare numeric in U/mg

Reported U/mg NADH (specific activity) for Se1_KARI^EA8-his6: S. exigua KARI variant L57S (protein, UniProt D0WGK0 1-342, looked up, variant L57S, His6 tag, S. exigua KARI variant L57S) Ketol-acid reductoisomerase …: MSVKTKEKEMAVTILYEQDVDPKVIQGLKVGIIGYGSQGHAHALNLMDSGVDVRVGSREGSSSWKTAEEAGLKVTDMDTAAEEADVIMVLVPDEIQPKVYQEHIAAHLKAGNTLAFAHGFNIHYGYIVPPEDVNVIMCAPKGPGHIVRRQFTEGSGVPDLACVQQDATGNAWDIVLSYCWGVGGARSGIIKATFAEETEEDLFGEQAVLCGGLVELVKAGFETLTEAGYPPELAYFECYHEMKMIVDLMYESGIHFMNYSISNTAEYGEYYAGPKVINEQSREAMKEILKRIQDGSFAQEFVDDCNNGHKRLLEQREAINTHPIETTGAQIRSMFSWIKKED was 0.19

Reported U/mg NADH (specific activity) for Se1_KARI^CD10-his6: S. exigua KARI variant Y35H (protein, UniProt D0WGK0 1-342, looked up, variant Y35H, His6 tag, S. exigua KARI variant Y35H) Ketol-acid reductoisomerase …: MSVKTKEKEMAVTILYEQDVDPKVIQGLKVGIIGHGSQGHAHALNLMDSGVDVRVGLREGSSSWKTAEEAGLKVTDMDTAAEEADVIMVLVPDEIQPKVYQEHIAAHLKAGNTLAFAHGFNIHYGYIVPPEDVNVIMCAPKGPGHIVRRQFTEGSGVPDLACVQQDATGNAWDIVLSYCWGVGGARSGIIKATFAEETEEDLFGEQAVLCGGLVELVKAGFETLTEAGYPPELAYFECYHEMKMIVDLMYESGIHFMNYSISNTAEYGEYYAGPKVINEQSREAMKEILKRIQDGSFAQEFVDDCNNGHKRLLEQREAINTHPIETTGAQIRSMFSWIKKED was 0.13
